Hello, the source for this data is patent US20220370451A1, in case you need it.

- TEST METHOD NOTES: Compound cytotoxicity, XTT-based colorimetric assay
- Format: cell-based
- TEST CONDITIONS: human; uninfected MT2 cells, day 4, XTT
ASSAY READOUT: CC50 at 4 days

The examples below pair each entry with its known result.
[[record]]
compound = "Cc1nccnc1-c1ccc2c(=O)n(-c3ccc(Cl)c4c(NS(C)(=O)=O)nn(C)c34)c([C@H](Cc3cc(F)cc(F)c3)NC(=O)Cn3nc(C(F)(F)F)cc3C(F)(F)F)nc2c1 (atropisomer, axis not shown; (P))"
assay_readout = "CC50 at 4 days"
recorded_measurement = "> 0.5 µM"

[[record]]
compound = "CC(C)(C(=O)N[C@@H](Cc1cc(F)cc(F)c1)c1nc2nc(-c3ccccc3F)ccc2c(=O)n1-c1ccc(Cl)c2c(NS(C)(=O)=O)nn(CC(F)F)c12)n1ccc(C2CC2)n1 (atropisomer, axis not shown; (P))"
assay_readout = "CC50 at 4 days"
recorded_measurement = "> 0.5 µM"


In: Give CC50 at 4 days for CC(C)(C(=O)N[C@@H](Cc1cc(F)cc(F)c1)c1nc2nc(-c3ccccc3F)ccc2c(=O)n1-c1ccc(Cl)c2c(NS(C)(=O)=O)nn(CC(F)(F)F)c12)n1ccc(C2CC2)n1 (atropisomer, axis not shown; (P))
Out: > 0.5 µM
